Values were extracted from the supplement of paper PMC9170038.

- Test system: MS2 coat protein
- experiment: apparent KD of MS2 coat protein; designed switch direction (-1 OFF switch, 1 ON switch): -1; higher = weaker reporter binding
- setupConditions: input ligand: FMN 200 uM
metricName: apparent KD of MS2 coat protein (nM)
Your answer should be a plain number; it is taken to be in nM.

Some sequences with recorded apparent KD of MS2 coat protein:
- sequenceChain: "ACAUGAGGAUCACCCAUGUCCGGCUGGUCUGUUCCGGCUGUCGAGGAUAUAGUUCGGUGUUCGCGCUAGAAGGCGGGAGCUGGA [Aenatbe mod 52] (Eterna round: R96, puzzle: Exclusion NG 3)"
  apparent KD of MS2 coat protein, nM: 150
- sequenceChain: "AUAAAACAUGAGGAUCACCCAUGUCAGGAUAUACGACUCCAACCAAACUGCUUGGACCGUAGAAGGGACAAGGG [Exclusion 1 (MOD2 Esqu)] (Eterna round: R97, puzzle: Exclusion 1)"
  apparent KD of MS2 coat protein, nM: 140
- sequenceChain: "UAUUGGCUAGGAUAUCCGGCUGGCGACAUGAGGAUCACCCAUGUGGACUCUGGUUGUCUUGGAGAAGGAGCAUGCG [EX5 B.19] (Eterna round: R97, puzzle: Exclusion 5)"
  apparent KD of MS2 coat protein, nM: 206
- sequenceChain: "AUACCCAGAGGAUAUGCCGCUGGGUGCCCUCUGCAUAAAACACUUGAGGAUCACCCAAGUAGAAGGCUGGGCUC [Leiseses] (Eterna round: R97, puzzle: Exclusion 2)"
  apparent KD of MS2 coat protein, nM: 173

Exercise: // apparent KD of MS2 coat protein lookup, key: ACAGUUCUGCAAGGAUAUCGUCCUAGUUUGUUUCGAGAAGGUGCUUUUGUUUUUUCUUUGUGUUGACAUGAGGAUCACCCAUGU [JR_ExcNG1_Sub052] (Eterna round: R96, puzzle: Exclusion NG 1)
Key: 20.3

Exercise: Also, GACUUCUCUGAGGAUAUUGCAUCACCCGAUCUAUAAGAAGGCAGAACAUGAGGAUCACCCAUGUGGGUUUCUAG [Bingo-Bango-27] (Eterna round: R97, puzzle: Exclusion 6) please.
Key: 40.6

Exercise: Also, GUGGGUUACAUGAGGAUCACCCAUGUAUAGUGGGAAAAAAUAUAGGAUAUAAUAUAAAAAUUAUAUUAGAAGGAUAGAGACUAG [AK ExNG3-1] (Eterna round: R96, puzzle: Exclusion NG 3) please.
Key: 419

Exercise: Also, UUGUUACAUGAGGAUCACCCAUGUGAGGAUAUGAGGGUUAGCUUAAAUGGGCUGACUUUCAGAAGGCACAUGAA [JR_Ex1_Sub058] (Eterna round: R97, puzzle: Exclusion 1) please.
Key: 327

Exercise: Also, AAGCUGUCAGGAUAUCGUUAAUUUAGUUGUUUGUAUUAGUUCGAGAAGGGACAUGAGGAUCACCCAUGUAUGAA [Ex4 #41] (Eterna round: R97, puzzle: Exclusion 4) please.
Key: 62.7

Exercise: Also, UAUCCUCAAGUGAGGAUAUGACGGUCAAGACGCGUUCAGAAGGCACAUGAGGAUCACCCAUGUGAUAAAGGAAU [Eternabot (L2) Solution 38] (Eterna round: R97, puzzle: Brourd's mod of Exclusion 4) please.
Key: 91.7
